Reference source: paper PMC9926234

- TARGET UNDER TEST: SARS-CoV-2 NSP3 Mac1 (Severe acute respiratory syndrome coronavirus 2)
- Assay type: binding
- CONDITION INFO: ligand occupancy after refinement (phenix.refine); crystal soaking of Mac1
MEASURED QUANTITY: Refined occupancy
Form field (numeric): enter value without unit.

Example entries begin here.
> print(dat)
                                   molecule  quantitative.readout
1  O=C(O)C1CN(c2ncnc3[nH]c4cc(F)ccc4c23)CC12CCC2 (stereo not shown) [LL123_0020]                    34
2  O=C(O)CC1CN(c2ncnc3[nH]c4ccccc4c23)CCO1 (stereo not shown) [Compound Z9596]                    12
3  Cl.O=C(O)C1CN(c2ncnc3[nH]c4cc(F)ccc4c23)CCO1 (stereo not shown) [LL114_0033]                    30
4  O=C1COc2cc(C(=O)NC3c4cccc(O)c4CC3C(=O)O)ccc2N1 (stereo not shown) [8539_0014]                    58
5  O=C(O)CC(NC(=O)c1cc(F)cc2[nH]cnc12)c1ccc(Br)cc1 (stereo not shown) [Compound Z3722]                    40

Query: Field: Refined occupancy (SARS-CoV-2 NSP3 Mac1 (Severe acute respiratory syndrome coronavirus 2)). Entry: O=C(O)CC1CN(c2ncnc3[nH]c4cc(F)ccc4c23)CCO1 (stereo not shown) [LL1_0014]
Result: 22

Query: Field: Refined occupancy (SARS-CoV-2 NSP3 Mac1 (Severe acute respiratory syndrome coronavirus 2)). Entry: O=S1(=O)CCC2(CCCN(c3ncnc4[nH]ccc34)C2)C1 (stereo not shown) [Z4305]
Result: 76

Query: Field: Refined occupancy (SARS-CoV-2 NSP3 Mac1 (Severe acute respiratory syndrome coronavirus 2)). Entry: Cc1oc(=O)oc1CSc1ncnc2[nH]cnc12 [Compound Z7450]
Result: 25

Query: Field: Refined occupancy (SARS-CoV-2 NSP3 Mac1 (Severe acute respiratory syndrome coronavirus 2)). Entry: COC(=O)CC1CN(c2ncnc3[nH]c4cc(F)ccc4c23)CCO1 (stereo not shown) [LL114_0040]
Result: 16

Query: Field: Refined occupancy (SARS-CoV-2 NSP3 Mac1 (Severe acute respiratory syndrome coronavirus 2)). Entry: CC1C(C(=O)O)CCCN1S(=O)(=O)c1c[nH]c2ncc(Cl)cc12 (stereo not shown) [REAL300016493575]
Result: 18

Query: Field: Refined occupancy (SARS-CoV-2 NSP3 Mac1 (Severe acute respiratory syndrome coronavirus 2)). Entry: Cn1nc(O)c2c1CN(C(=O)c1cc(O)cc(=O)o1)CC2 [FRESH00002410346]
Result: 14

Query: Field: Refined occupancy (SARS-CoV-2 NSP3 Mac1 (Severe acute respiratory syndrome coronavirus 2)). Entry: Nc1nc(N2CC3(CCC3)C(F)(C(=O)O)C2)c2c(n1)[nH]c1cc(F)ccc12 (stereo not shown) [LL123_0016]
Result: 34

Query: Field: Refined occupancy (SARS-CoV-2 NSP3 Mac1 (Severe acute respiratory syndrome coronavirus 2)). Entry: Nc1ncnc2c1ncn2Cc1cc(-c2ccco2)on1 [ZINC000681764827]
Result: 50
